Measurement target: IRAK4 (Homo sapiens, UniProt Q9NWZ3)
Construct: Degradation of IRAK4 in OCI-LY10 was quantitatively measured using Meso Scale Discovery technology; endogenous in cells; host or cells: OCI-LY10
Sequence (Q9NWZ3 whole entry): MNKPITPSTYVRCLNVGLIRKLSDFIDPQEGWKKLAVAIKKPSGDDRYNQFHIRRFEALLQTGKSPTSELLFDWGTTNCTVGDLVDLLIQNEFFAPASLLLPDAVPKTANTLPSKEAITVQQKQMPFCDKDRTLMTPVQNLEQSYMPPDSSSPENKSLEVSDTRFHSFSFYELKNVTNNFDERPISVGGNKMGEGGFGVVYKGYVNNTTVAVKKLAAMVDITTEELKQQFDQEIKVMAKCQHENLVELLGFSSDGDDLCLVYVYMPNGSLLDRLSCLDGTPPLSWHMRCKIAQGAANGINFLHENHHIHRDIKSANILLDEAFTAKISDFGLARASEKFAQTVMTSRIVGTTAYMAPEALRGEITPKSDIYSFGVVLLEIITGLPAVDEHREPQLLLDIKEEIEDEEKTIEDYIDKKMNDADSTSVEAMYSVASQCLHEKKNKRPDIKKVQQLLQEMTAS
Method notes: IRAK4 MSD Degradation in OCI-LY10
Format: cell-based
Measurement context: OCI-LY10 cells, 24 hrs incubation, MSD; read-out: IRAK4 degradation in OCI-LY10 at 24 hrs: DC50

>  <Molecule>
C[C@H]1CN(c2ccn3ncc(C(=O)Nc4cn([C@H]5CC[C@H](CN(C)C6CCN(c7cccc8c7n(C)c(=O)n8C7CCC(=O)NC7=O)CC6(F)F)CC5)nc4C(F)F)c3n2)C[C@H](C)O1 (stereo partly shown) [I-533]

>  <DC50>
> 0.2 µM

$$$$
>  <Molecule>
Cn1c(=O)n(C2CCC(=O)NC2=O)c2cccc(N3CCN(C[C@H]4CC[C@H](n5cc6cc(NC(=O)c7cccc(C(F)F)n7)ncc6n5)CC4)CC3)c21 (stereo partly shown) [I-693]

>  <DC50>
< 0.01 µM

$$$$
>  <Molecule>
C[C@H]1CN(C[C@H]2CC[C@H](n3cc(NC(=O)c4cnn5ccc(N6C[C@@H]7C[C@H]6CO7)nc45)c(C(F)F)n3)CC2)CC[C@@H]1OCC#Cc1cccc2c1n(C)c(=O)n2[C@@H]1CCC(=O)NC1=O [I-80]

>  <DC50>
> 0.2 µM

$$$$
>  <Molecule>
Cn1c(=O)n(C2CCC(=O)NC2=O)c2cccc(C3CN([C@@H]4CCN(C[C@H]5CC[C@H](n6cc(NC(=O)c7cnn8ccc(N9C[C@H]%10C[C@@H]9CO%10)nc78)c(C(F)F)n6)CC5)C[C@H]4F)C3)c21 (stereo partly shown) [I-681]

>  <DC50>
< 0.01 µM

$$$$
>  <Molecule>
Cn1c(=O)n(C2CCC(=O)NC2=O)c2cccc(C3=CCN(C[C@H]4CC[C@H](n5cc6cc(NC(=O)c7cccc(C(F)(F)F)n7)c(C#N)cc6n5)CC4)CC3F)c21 (stereo partly shown) [I-458]

>  <DC50>
> 0.2 µM

$$$$
>  <Molecule>
Cn1c(=O)n(C2CCC(=O)NC2=O)c2cccc(C#CCN3CCN(C[C@H]4CC[C@H](n5cc(NC(=O)c6cnn7ccc(OC8CCCCC8)nc67)c(C(F)F)n5)CC4)CC3)c21 (stereo partly shown) [I-246]

>  <DC50>
> 0.2 µM

$$$$
>  <Molecule>
Cn1c(=O)n(C2CCC(=O)NC2=O)c2cccc(C#CCOC3CCN(C[C@H]4CC[C@H](c5cnc(C(F)F)c(NC(=O)c6cnn7ccc(N8C[C@H]9C[C@@H]8CO9)nc67)c5)CC4)CC3)c21 (stereo partly shown) [I-178]

>  <DC50>
> 0.2 µM

$$$$
>  <Molecule>
COc1cc2nn([C@H]3CC[C@H](CN4CC=C(c5cccc6c(N7CCC(=O)NC7=O)cncc56)C(F)(F)C4)CC3)cc2cc1NC(=O)c1cccc(C(F)(F)F)n1 [I-466]

>  <DC50>
> 0.2 µM

$$$$
>  <Molecule>
CC1CN(c2ccn3ncc(C(=O)Nc4cn([C@H]5CC[C@H](CN(C)C6CCN(c7cccc8c7n(C)c(=O)n8C7CCC(=O)NC7=O)CC6)CC5)nc4C(F)F)c3n2)CCO1 (stereo partly shown) [I-358]

>  <DC50>
> 0.2 µM

$$$$
>  <Molecule>
Cn1c(=O)n(C2CCC(=O)NC2=O)c2cccc(N3CC(OC4CCN(C[C@H]5CC[C@H](n6cc(NC(=O)c7cnn8ccc(N9C[C@H]%10C[C@@H]9CO%10)nc78)c(C(F)F)n6)CC5)CC4)C3)c21 (stereo partly shown) [I-601]

>  <DC50>
> 0.2 µM

$$$$
